# Tested on: C. acnes strain K8
# Protocol Text: Evaluation of the minimum inhibitory concentration (MIC) of cosmetic excipients
# Assay type: cell-based, Cutibacterium acnes
# Measurement Context: % w/vol, incubated anaerobically 3 days at 37° C., scored for growth or complete growth inhibition
Assay Endpoint: COMPATABILITY VALUE K8 [%] (MIC) (%)
Answers are plain numbers, in %.

CC(CO)CO    4.00
CCCCCCC(O)CO (stereo not shown)    0.18
O=C(O)CC(O)(CC(=O)O)C(=O)O    0.08

Let us examine a further case.
Query: Could you tell me which COMPATABILITY VALUE K8 [%] (MIC) is on file for CC(=O)Oc1c(C)c(C)c2c(c1C)CCC(C)(CCC[C@H](C)CCC[C@H](C)CCCC(C)C)O2 (stereo partly shown) [tocopheryl acetate] ?
Result: 1.00
